Assay: 1H-NMR titration of template/functional monomer complexation
Format: binding
Condition notes: 1:1 complex of D with single monomer, d6-DMSO, 25 °C; read-out: apparent dissociation constant (app. Kdiss) of complex with ACM
Where a name gives a salt, the structure may show the parent alone.
Endpoint name: Kd (µM)

molecule="NCCc1ccc(O)c(O)c1 [D, Dopamine hydrochloride]" value_observed=1980

###

Reported values of Ki for individual entries
Target or system: dopamine receptors derived from rat hypothalamus
Assay: Displacement of D probe from natural receptor
Condition notes: 10 mg protein, 0.25 μmole D in 1 mL (250 μM), 37 °C, mean ± SD, n = 4; read-out: Ki, D ligand, Rat hypothalamus
Counter-ions that a name gives are not always drawn.
Endpoint name: Ki (nM)

molecule="CC(C)[C@@]1(NC(=O)[C@@H]2C=C3c4cccc5[nH]cc(c45)C[C@H]3N(C)C2)O[C@@]2(O)[C@@H]3CCCN3C(=O)[C@H](Cc3ccccc3)N2C1=O [Ergocristine, ergocristine]" target_or_system="dopamine receptors derived from rat hypothalamus" value_observed=7.6
molecule="CC(C)[C@H]1C(=O)N2CCC[C@H]2[C@]2(O)O[C@](NC(=O)[C@@H]3C=C4c5cccc6[nH]cc(c56)C[C@H]4N(C)C3)(C(C)C)C(=O)N12 [Ergocornine, ergocornine]" target_or_system="dopamine receptors derived from rat hypothalamus" value_observed=10.4
molecule="CCN(CC)C(=O)N[C@H]1C[C@@H]2c3cccc4[nH]cc(c34)C[C@H]2N(C)C1 [Terguride, terguride]" target_or_system="dopamine receptors derived from rat hypothalamus" value_observed=0.03
molecule="CCCN1C[C@H](CSC)C[C@@H]2c3cccc4[nH]cc(c34)C[C@H]21 [Pergolide, pergolide mesylate]" target_or_system="dopamine receptors derived from rat hypothalamus" value_observed=0.7
molecule="C[C@@H](CO)NC(=O)[C@@H]1C=C2c3cccc4[nH]cc(c34)C[C@H]2N(C)C1 [Ergonovine, ergonovine maleate]" target_or_system="dopamine receptors derived from rat hypothalamus" value_observed=2.5
molecule="CC1=C[C@@H]2c3cccc4[nH]cc(c34)C[C@H]2N(C)C1 [Agroclavine, agroclavine]" target_or_system="dopamine receptors derived from rat hypothalamus" value_observed=1.5
molecule="CC(C)C[C@H]1C(=O)N2CCC[C@H]2[C@]2(O)O[C@](NC(=O)[C@@H]3C=C4c5cccc6[nH]cc(c56)C[C@H]4N(C)C3)(C(C)C)C(=O)N12 [Ergocryptine, ergocryptine]" target_or_system="dopamine receptors derived from rat hypothalamus" value_observed=2.8
